# Tested on: R2
# Protocol details: cells
# Condition description: Homo sapiens, R2, 96 h
pIC50: −log10 of the molar value.
The molecules listed here are annotated with their pIC50.

Query block: // Input: Nc1nc2[nH]c(CCCCc3ccc(C(=O)N[C@@H](CCC(=O)O)C(=O)O)s3)cc2c(=O)[nH]1 . Output its pIC50 only.
Result block: < 6.00

Continue with the molecule presented below.
Query block: // Input: Nc1nc(N)c2nc(CNc3ccc(C(=O)N[C@@H](CCCNC(=O)c4ccccc4C(=O)O)C(=O)O)cc3)cnc2n1 [TALOTREXIN] . Output its pIC50 only.
Result block: < 6.00
